Measured values drawn from patent US9434743B2 for this set.

biological target: human MetAP2 enzyme (Homo sapiens); experiment: MetAP2 enzyme assay, enzyme complexed with manganese ions; details: MetAP2 Mn pIC50, MetAP2 enzyme complexed with manganese ions; Met-AMC substrate at Km
Sequence (P50579 whole entry): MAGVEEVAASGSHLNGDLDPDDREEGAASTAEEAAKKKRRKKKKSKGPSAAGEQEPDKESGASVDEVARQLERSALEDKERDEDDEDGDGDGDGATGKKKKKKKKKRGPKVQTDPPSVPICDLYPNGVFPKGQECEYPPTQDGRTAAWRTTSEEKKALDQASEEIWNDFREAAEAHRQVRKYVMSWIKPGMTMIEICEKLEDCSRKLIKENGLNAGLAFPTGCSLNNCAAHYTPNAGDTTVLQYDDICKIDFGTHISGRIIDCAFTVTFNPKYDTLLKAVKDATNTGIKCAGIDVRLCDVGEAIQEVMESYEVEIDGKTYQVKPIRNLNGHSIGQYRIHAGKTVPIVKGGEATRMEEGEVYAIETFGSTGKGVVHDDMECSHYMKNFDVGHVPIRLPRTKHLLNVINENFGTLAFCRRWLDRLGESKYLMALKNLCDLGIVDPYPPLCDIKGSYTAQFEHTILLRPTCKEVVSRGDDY
Readout Label: IC50 (nM)
Reply with just the number (in nM).

CCOC(=O)Cn1cc(-c2cc(C(F)(F)F)cc3[nH]ncc23)cn1
6.31
Cc1c(-c2cc(C(F)(F)F)cc3[nH]ncc23)c(N)nn1C
6.31
FC(F)(F)COc1ncccc1-c1cc(C(F)(F)F)cc2[nH]ncc12
15.8
COc1ccc(CC(N)=O)cc1-c1cc(C(F)(F)F)cc2[nH]ncc12
7.94
FC(F)(F)c1cc(-c2cnc3ccnn3c2)c2cn[nH]c2c1
5.01

# value lookup — system human MetAP2 enzyme (Homo sapiens), readout IC50, item OCc1ccc(Cl)c(-c2cc(C(F)(F)F)cc3[nH]ncc23)c1
12.6

# value lookup — system human MetAP2 enzyme (Homo sapiens), readout IC50, item C[C@@H](O)CNC(=O)c1cc(-c2cc(C(F)(F)F)cc3[nH]ncc23)c(=O)n(C)c1
10

# value lookup — system human MetAP2 enzyme (Homo sapiens), readout IC50, item Cc1ccc(C(=O)NCCO)cc1-c1cc(C(F)(F)F)cc2[nH]ncc12
12.6

# value lookup — system human MetAP2 enzyme (Homo sapiens), readout IC50, item COc1ccncc1-c1cc(C(F)(F)F)cc2[nH]ncc12
25.1

====

molecular target: human MetAP2 enzyme (Homo sapiens); assay: MetAP2 enzyme assay, enzyme complexed with cobalt ions; conditions: MetAP2 Co pIC50, MetAP2 enzyme complexed with cobalt ions; Met-AMC substrate at Km
# label = bin(measured IC50), where bins are low (below 50 nM), mid (50 nM to below 200 nM), high (200 nM or more)

See these solved cases before continuing.
Cc1nn(C)c(C)c1-c1cc(C(F)(F)F)cc2[nH]ncc12
low
O=C(NCc1ccccc1)c1cccc(-c2cc(C(F)(F)F)cc3[nH]ncc23)c1
high
Cc1ncccc1-c1cc(C(F)(F)F)cc2[nH]ncc12
low
FC(F)(F)c1cc(-c2cnc3[nH]ncc3c2)c2cn[nH]c2c1
low
FC(F)(F)c1cc(-c2cnc(N3CCOCC3)cn2)c2cn[nH]c2c1
mid
Nc1ncccc1-c1cc(C(F)(F)F)cc2[nH]ncc12
mid

Sort into band: O=S(=O)(c1ccc(-c2cc(C(F)(F)F)cc3[nH]ncc23)cc1)n1cccn1
mid

Sort into band: COc1ccc(CC(N)=O)cc1-c1cc(C(F)(F)F)cc2[nH]ncc12
low

Sort into band: Cc1cnc(N)c(-c2cc(C(F)(F)F)cc3[nH]ncc23)c1
mid

Sort into band: FC(F)(F)c1cc(-c2ccc3[nH]cnc3c2)c2cn[nH]c2c1
low

Sort into band: FC(F)(F)c1cc(-c2cnn(Cc3ccccn3)c2)c2cn[nH]c2c1
low

Sort into band: C[C@H](O)CNC(=O)c1c[nH]c(=O)c(-c2cc(C(F)(F)F)cc3[nH]ncc23)c1
high

Sort into band: Cc1cc(S(=O)(=O)N(C)C)ccc1-c1cc(C(F)(F)F)cc2[nH]ncc12
mid

Sort into band: O=C(NCC(O)CO)c1c[nH]c(=O)c(-c2cc(C(F)(F)F)cc3[nH]ncc23)c1 (stereo not drawn)
high

Sort into band: Cc1cc(=O)[nH]cc1-c1cc(C(F)(F)F)cc2[nH]ncc12
low
